Assignment: determine reported IC50 for the given compounds.
Test system: HCT-15
Test: Cytotoxicity against human HCT15 cells incubated for 24 hrs measured 48 hrs post cell re-growth post compound dose by MTT assay
Format: functional, cell-based

COMPOUND	IC50
CCN1C[C@]2(COC)[C@H](O)C[C@H](OC)[C@]34C1[C@H]([C@H](OC)[C@H]23)[C@]1(OC(=O)CCC(=O)O[C@]23[C@H]5[C@@H](OC(=O)c6ccccc6)[C@](O)(C[C@H]5[C@@]56C7[C@@H]2[C@H](OC)[C@@H]5[C@](COC)(CN7CC)[C@H](O)C[C@@H]6OC)[C@@H](OC)[C@@H]3O)[C@H]2[C@@H](OC(=O)c3ccccc3)[C@](O)(C[C@H]24)[C@@H](OC)[C@@H]1O	> 60 µM
CCN1C[C@]2(COC)[C@H](O)C[C@H](OC)[C@]34C1[C@H]([C@H](OC)[C@H]23)[C@]1(OC(=O)CCCCCCCC(=O)O[C@]23[C@H]5[C@@H](OC(=O)c6ccccc6)[C@](O)(C[C@H]5[C@@]56C7[C@@H]2[C@H](OC)[C@@H]5[C@](COC)(CN7CC)[C@H](O)C[C@@H]6OC)[C@@H](OC)[C@@H]3O)[C@H]2[C@@H](OC(=O)c3ccccc3)[C@](O)(C[C@H]24)[C@@H](OC)[C@@H]1O	28 µM
CCN1C[C@]2(COC)[C@H](O)C[C@H](OC)[C@]34C1[C@H]([C@H](OC)[C@H]23)[C@]1(OC(=O)CCCC(=O)O[C@]23[C@H]5[C@@H](OC(=O)c6ccccc6)[C@](O)(C[C@H]5[C@@]56C7[C@@H]2[C@H](OC)[C@@H]5[C@](COC)(CN7CC)[C@H](O)C[C@@H]6OC)[C@@H](OC)[C@@H]3O)[C@H]2[C@@H](OC(=O)c3ccccc3)[C@](O)(C[C@H]24)[C@@H](OC)[C@@H]1O	> 60 µM
CCN1C[C@]2(COC)[C@H](O)C[C@H](OC)[C@]34C1[C@H]([C@H](OC)[C@H]23)[C@]1(OC(=O)CCCCCC(=O)O)[C@H]2[C@@H](OC(=O)c3ccccc3)[C@](O)(C[C@H]24)[C@@H](OC)[C@@H]1O	> 60 µM
CCN1C[C@]2(COC)[C@H](O)C[C@H](OC)[C@]34C1[C@H]([C@H](OC)[C@H]23)[C@]1(OC(=O)CCCCCC(=O)O[C@]23[C@H]5[C@@H](OC(=O)c6ccccc6)[C@](O)(C[C@H]5[C@@]56C7[C@@H]2[C@H](OC)[C@@H]5[C@](COC)(CN7CC)[C@H](O)C[C@@H]6OC)[C@@H](OC)[C@@H]3O)[C@H]2[C@@H](OC(=O)c3ccccc3)[C@](O)(C[C@H]24)[C@@H](OC)[C@@H]1O	4.64 µM

Could you report IC50 for every entry in the following list?
1. CCN1C[C@]2(COC)[C@H](O)C[C@H](OC)[C@]34C1[C@H]([C@H](OC)[C@H]23)[C@]1(OC(=O)CCCCCCC(=O)O[C@]23[C@H]5[C@@H](OC(=O)c6ccccc6)[C@](O)(C[C@H]5[C@@]56C7[C@@H]2[C@H](OC)[C@@H]5[C@](COC)(CN7CC)[C@H](O)C[C@@H]6OC)[C@@H](OC)[C@@H]3O)[C@H]2[C@@H](OC(=O)c3ccccc3)[C@](O)(C[C@H]24)[C@@H](OC)[C@@H]1O
2. CCN1C[C@]2(COC)[C@H](O)C[C@H](OC)[C@]34C1[C@H]([C@H](OC)[C@H]23)[C@]1(OC(=O)CCCCC(=O)O[C@]23[C@H]5[C@@H](OC(=O)c6ccccc6)[C@](O)(C[C@H]5[C@@]56C7[C@@H]2[C@H](OC)[C@@H]5[C@](COC)(CN7CC)[C@H](O)C[C@@H]6OC)[C@@H](OC)[C@@H]3O)[C@H]2[C@@H](OC(=O)c3ccccc3)[C@](O)(C[C@H]24)[C@@H](OC)[C@@H]1O
3. CCN1C[C@]2(COC)[C@H](O)C[C@H](OC)[C@]34C1[C@H]([C@H](OC)[C@H]23)[C@]1(OC(=O)CCCCCCCCC(=O)O)[C@H]2[C@@H](OC(=O)c3ccccc3)[C@](O)(C[C@H]24)[C@@H](OC)[C@@H]1O
4. CCN1C[C@]2(COC)[C@H](O)C[C@H](OC)[C@]34C1[C@H]([C@H](OC)[C@H]23)[C@]1(OC(=O)CCCC(=O)O)[C@H]2[C@@H](OC(=O)c3ccccc3)[C@](O)(C[C@H]24)[C@@H](OC)[C@@H]1O
5. CCN1C[C@]2(COC)[C@H](O)C[C@H](OC)[C@]34C1[C@H]([C@H](OC)[C@H]23)[C@]1(OC(=O)CCC(=O)O)[C@H]2[C@@H](OC(=O)c3ccccc3)[C@](O)(C[C@H]24)[C@@H](OC)[C@@H]1O

// result
["4.01 µM", "> 60 µM", "> 60 µM", "> 60 µM", "> 60 µM"]
